Tested on: E. coli strain W3110
Test: Synergy assays: Biolog chemical sensitivity panels with Group IB metal, coefficient of drug interaction (CDI) from relative growth
Type: cell-based
Conditions: Gold (μM), second of 3 gold concentrations; biocide concentration 1 of 4
Reported CDI (coefficient of drug interaction), gold + biocide values for a set of compounds
Note: the reply should be a number with no unit written.

1. NC(CO)C(=O)NO (racemic) [D,L-serine hydroxamate] = 1.02

Qu. What measured CDI (coefficient of drug interaction), gold + biocide goes with NCC(=O)NO [glycine hydroxamate] ?
Ans. 1.07

Qu. What measured CDI (coefficient of drug interaction), gold + biocide goes with O=C(O)/C=C/c1ccccc1 ?
Ans. 0.99

Qu. What measured CDI (coefficient of drug interaction), gold + biocide goes with O=[N+]([O-])c1ccc(O)c([N+](=O)[O-])c1 ?
Ans. 1.02

Qu. What measured CDI (coefficient of drug interaction), gold + biocide goes with CSCCC(N)C(=O)NO (racemic) [D,L-methionine hydroxamate] ?
Ans. 1.03

Qu. What measured CDI (coefficient of drug interaction), gold + biocide goes with CC1(C)S[C@@H]2[C@H](NC(=O)[C@H](NC(=O)N3CCNC3=O)c3ccccc3)C(=O)N2[C@H]1C(=O)O ?
Ans. 1.05

Qu. What measured CDI (coefficient of drug interaction), gold + biocide goes with NC(CCC(=O)NO)C(=O)O [L-glutamic-γ-hydroxamate] ?
Ans. 1.02

Qu. What measured CDI (coefficient of drug interaction), gold + biocide goes with N.N.N.N.N.N.N.N.N.N.N.N.N.N.[Cl-].[Cl-].[Cl-].[Cl-].[Cl-].[Cl-].[O-2].[O-2].[Ru+3].[Ru+3].[Ru+4] ?
Ans. 1.03
